tested on: BVDV; assay: BVDV antiviral assay in MDBK cells, XTT readout of inhibition of virus-induced cell killing; type: cell-based; details: BVDV in MDBK cells
# reported IC50; entries follow

- molecule: "INF-α J1: human IFN-α species J1 (protein, UniProt P01567 24-189, looked up) Interferon alpha-7: CDLPQTHSLRNRRALILLAQMGRISPFSCLKDRHEFRFPEEEFDGHQFQKTQAISVLHEMIQQTFNLFSTEDSSAAWEQSLLEKFSTELYQQLNDLEACVIQEVGVEETPLMNEDFILAVRKYFQRITLYLMEKKYSPCAWEVVRAEIMRSFSFSTNLKKGLRRKD"
  IC50 / U/ml: 10.60
- molecule: "INF-α D: human IFN-α species D (protein, UniProt P01562 24-189, looked up) Interferon alpha-1/13: CDLPETHSLDNRRTLMLLAQMSRISPSSCLMDRHDFGFPQEEFDGNQFQKAPAISVLHELIQQIFNLFTTKDSSAAWDEDLLDKFCTELYQQLNDLEACVMQEERVGETPLMNADSILAVKKYFRRITLYLTEKKYSPCAWEVVRAEIMRSLSLSTNLQERLRRKE"
  IC50 / U/ml: 11.60
- molecule: "INF-α F: human IFN-α species F (protein, UniProt P01568 24-189, looked up) Interferon alpha-21: CDLPQTHSLGNRRALILLAQMGRISPFSCLKDRHDFGFPQEEFDGNQFQKAQAISVLHEMIQQTFNLFSTKDSSATWEQSLLEKFSTELNQQLNDLEACVIQEVGVEETPLMNVDSILAVKKYFQRITLYLTEKKYSPCAWEVVRAEIMRSFSLSKIFQERLRRKE"
  IC50 / U/ml: 33.00
- molecule: "INF-α K: human IFN-α species K (protein, UniProt P05013 21-189, looked up) Interferon alpha-6: SLDCDLPQTHSLGHRRTMMLLAQMRRISLFSCLKDRHDFRFPQEEFDGNQFQKAEAISVLHEVIQQTFNLFSTKDSSVAWDERLLDKLYTELYQQLNDLEACVMQEVWVGGTPLMNEDSILAVRKYFQRITLYLTEKKYSPCAWEVVRAEIMRSFSSSRNLQERLRRKE"
  IC50 / U/ml: 24.80
- molecule: "INF-α G: human IFN-α species G (protein, UniProt P01569 22-189, looked up) Interferon alpha-5: LGCDLPQTHSLSNRRTLMIMAQMGRISPFSCLKDRHDFGFPQEEFDGNQFQKAQAISVLHEMIQQTFNLFSTKDSSATWDETLLDKFYTELYQQLNDLEACMMQEVGVEDTPLMNVDSILTVRKYFQRITLYLTEKKYSPCAWEVVRAEIMRSFSLSANLQERLRRKE"
  IC50 / U/ml: 23.60
- molecule: "INF-α WA: human IFN-α species WA (protein, UniProt P05015 24-189, looked up) Interferon alpha-16: CDLPQTHSLGNRRALILLAQMGRISHFSCLKDRYDFGFPQEVFDGNQFQKAQAISAFHEMIQQTFNLFSTKDSSAAWDETLLDKFYIELFQQLNDLEACVTQEVGVEEIALMNEDSILAVRKYFQRITLYLMGKKYSPCAWEVVRAEIMRSFSFSTNLQKGLRRKD"
  IC50 / U/ml: 6.75
- molecule: "INF-α C: human IFN-α species C (protein, UniProt P01566 24-189, looked up) Interferon alpha-10: CDLPQTHSLGNRRALILLGQMGRISPFSCLKDRHDFRIPQEEFDGNQFQKAQAISVLHEMIQQTFNLFSTEDSSAAWEQSLLEKFSTELYQQLNDLEACVIQEVGVEETPLMNEDSILAVRKYFQRITLYLIERKYSPCAWEVVRAEIMRSLSFSTNLQKRLRRKD"
  IC50 / U/ml: 9.12
